- Tested on: K562
- protocol: cells
- Type: functional, cell-based
- protocol_conditions: Homo sapiens, K562, 72 h
- Description: Antiproliferative activity against human K562 cells assessed as inhibition of cell proliferation incubated for 72 hrs by CCK8 assay
measured_metric: IC50 (nM)

1. Nc1ncc(-c2cn(CCCCCCCC(=O)NO)c(=O)c(N3CCOCC3)n2)cn1; 4560
2. O=C(NO)c1ccc(Cn2cc(-c3cccc4[nH]ncc34)nc(N3CCOCC3)c2=O)cc1; 120
3. CNc1ncc(-c2cn(Cc3ccc(C(=O)NO)cc3)c(=O)c(N3CCOCC3)n2)cn1; 6120
4. Nc1cc(C(F)(F)F)c(-c2cc(N3CCOCC3)nc(N3CCOCC3)n2)cn1; 730

###

- Tested on: MV4-11
- protocol: cells
- Type: functional, cell-based
- protocol_conditions: Homo sapiens, MV4-11, 72 h
- Description: Antiproliferative activity against human MV4-11 cells assessed as inhibition of cell proliferation incubated for 72 hrs by CCK8 assay
pIC50: −log10 of the molar value.
measured_metric: pIC50

1) O=C(NO)c1ccc(Cn2cc(-c3cccc(O)c3)nc(N3CCOCC3)c2=O)cc1; 7.05
2) CNc1ncc(-c2cn(Cc3ccc(C(=O)NO)cc3)c(=O)c(N3CCOCC3)n2)cn1; 5.86
3) Nc1ncc(-c2cn(Cc3ccc(C(=O)NO)cc3)c(=O)c(N3CCOCC3)n2)cn1; 5.31
4) O=C(NO)c1ccc(Cn2cc(-c3cccc(CO)c3)nc(N3CCOCC3)c2=O)cc1; 7.15

###

Here the recorded pIC50 is given for each entry.
- Test system: MV4-11
- protocol: cells
- Type: functional, cell-based
- protocol_conditions: Homo sapiens, MV4-11, 72 h
pIC50: −log10 of the molar value.
measured_metric: pIC50

1) O=C(NO)c1ccc(Cn2cc(-c3cccc4[nH]ncc34)nc(N3CCOCC3)c2=O)cc1; 7.05
2) Nc1ncc(-c2cn(CCCCCC(=O)NO)c(=O)c(N3CCOCC3)n2)cn1; 4.71
3) Nc1cc(C(F)(F)F)c(-c2cc(N3CCOCC3)nc(N3CCOCC3)n2)cn1 [BUPARLISIB]; 6.14
4) Nc1ncc(-c2cn(CCCCCCCC(=O)NO)c(=O)c(N3CCOCC3)n2)cn1; 5.82
5) Nc1ncc(-c2cn(CCCCCCC(=O)NO)c(=O)c(N3CCOCC3)n2)cn1; 5.70

###

- tested_on: Protein deacetylase HDAC6 (Homo sapiens) (UniProt Q9UBN7)
- protocol_conditions: dose 100.0 nM
- Description: Inhibition of HDAC6 (unknown origin) at 100 nM
Here the recorded inhibition is given for each entry.
measured_metric: inhibition (%)

1) Nc1ncc(-c2cn(CCCCCCC(=O)NO)c(=O)c(N3CCOCC3)n2)cn1; 73
2) Nc1ccc(-c2cn(Cc3ccc(C(=O)NO)cc3)c(=O)c(N3CCOCC3)n2)cc1; 101
3) Nc1ncc(-c2cn(Cc3ccc(C(=O)NO)cc3)c(=O)c(N3CCOCC3)n2)cn1; 92

###

- tested_on: Protein deacetylase HDAC6 (Homo sapiens)
- Sequence (Q9UBN7 whole entry): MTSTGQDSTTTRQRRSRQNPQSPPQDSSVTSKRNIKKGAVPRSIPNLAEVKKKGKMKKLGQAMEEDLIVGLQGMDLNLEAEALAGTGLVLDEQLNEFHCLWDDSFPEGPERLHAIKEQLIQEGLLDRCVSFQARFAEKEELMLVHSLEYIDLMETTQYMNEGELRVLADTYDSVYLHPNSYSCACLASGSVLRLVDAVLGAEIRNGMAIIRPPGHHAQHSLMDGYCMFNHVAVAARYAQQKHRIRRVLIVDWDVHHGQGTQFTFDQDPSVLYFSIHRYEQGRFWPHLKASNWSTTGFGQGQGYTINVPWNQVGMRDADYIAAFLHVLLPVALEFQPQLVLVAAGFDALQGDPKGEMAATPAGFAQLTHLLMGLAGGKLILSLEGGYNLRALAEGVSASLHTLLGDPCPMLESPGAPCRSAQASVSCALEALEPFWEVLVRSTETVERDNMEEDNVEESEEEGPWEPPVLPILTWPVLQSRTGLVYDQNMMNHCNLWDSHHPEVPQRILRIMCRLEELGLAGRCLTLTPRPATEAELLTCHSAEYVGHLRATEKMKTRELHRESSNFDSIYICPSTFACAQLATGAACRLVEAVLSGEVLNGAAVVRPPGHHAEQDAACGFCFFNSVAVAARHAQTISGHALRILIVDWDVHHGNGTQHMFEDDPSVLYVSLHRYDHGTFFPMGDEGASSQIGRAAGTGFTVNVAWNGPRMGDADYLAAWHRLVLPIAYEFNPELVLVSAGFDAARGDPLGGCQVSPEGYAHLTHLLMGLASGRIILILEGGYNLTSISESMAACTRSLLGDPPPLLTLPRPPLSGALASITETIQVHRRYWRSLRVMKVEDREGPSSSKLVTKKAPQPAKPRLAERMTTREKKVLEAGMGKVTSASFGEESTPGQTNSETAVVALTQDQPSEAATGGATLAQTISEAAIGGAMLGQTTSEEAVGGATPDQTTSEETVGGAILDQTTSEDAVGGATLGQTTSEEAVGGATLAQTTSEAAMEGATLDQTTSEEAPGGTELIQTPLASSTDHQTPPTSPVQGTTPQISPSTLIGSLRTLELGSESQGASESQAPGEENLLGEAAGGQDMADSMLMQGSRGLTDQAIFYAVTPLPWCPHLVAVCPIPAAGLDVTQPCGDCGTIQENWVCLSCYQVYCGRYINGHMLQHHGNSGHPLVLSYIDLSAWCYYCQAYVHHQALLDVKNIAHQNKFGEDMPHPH
measured_metric: IC50 (nM)

1. Nc1ncc(-c2cc(N3CCOCC3)c(=O)n(Cc3ccc(C(=O)NO)cc3)n2)cn1; 13
2. O=C(NO)c1ccc(Cn2cc(-c3cccnc3)nc(N3CCOCC3)c2=O)cc1; 15
3. O=C(NO)c1ccc(Cn2cc(-c3ccc(O)cc3)nc(N3CCOCC3)c2=O)cc1; 14
4. Nc1ncc(-c2cn(CCCCCCC(=O)NO)c(=O)c(N3CCOCC3)n2)cn1; 54
5. O=C(NO)c1ccc(Cn2cc(-c3ccc(CO)cc3)nc(N3CCOCC3)c2=O)cc1; 15
6. Cc1noc(C)c1-c1cn(Cc2ccc(C(=O)NO)cc2)c(=O)c(N2CCOCC2)n1; 32
7. CN1CCN(c2nc(-c3cnc(N)nc3)cn(Cc3ccc(C(=O)NO)cc3)c2=O)CC1; 4.2
8. Nc1ncc(-c2cn(Cc3ccc(C(=O)NO)cc3)c(=O)c(N3CCOCC3)n2)cn1; 15
9. Nc1ncc(-c2cc(N3CCOCC3)c(=O)n(Cc3ccc(C(=O)NO)cc3)c2)cn1; 20
